TEST SYSTEM: Voltage-gated inwardly rectifying potassium channel KCNH2 (Homo sapiens)
Sequence (Q12809 whole entry): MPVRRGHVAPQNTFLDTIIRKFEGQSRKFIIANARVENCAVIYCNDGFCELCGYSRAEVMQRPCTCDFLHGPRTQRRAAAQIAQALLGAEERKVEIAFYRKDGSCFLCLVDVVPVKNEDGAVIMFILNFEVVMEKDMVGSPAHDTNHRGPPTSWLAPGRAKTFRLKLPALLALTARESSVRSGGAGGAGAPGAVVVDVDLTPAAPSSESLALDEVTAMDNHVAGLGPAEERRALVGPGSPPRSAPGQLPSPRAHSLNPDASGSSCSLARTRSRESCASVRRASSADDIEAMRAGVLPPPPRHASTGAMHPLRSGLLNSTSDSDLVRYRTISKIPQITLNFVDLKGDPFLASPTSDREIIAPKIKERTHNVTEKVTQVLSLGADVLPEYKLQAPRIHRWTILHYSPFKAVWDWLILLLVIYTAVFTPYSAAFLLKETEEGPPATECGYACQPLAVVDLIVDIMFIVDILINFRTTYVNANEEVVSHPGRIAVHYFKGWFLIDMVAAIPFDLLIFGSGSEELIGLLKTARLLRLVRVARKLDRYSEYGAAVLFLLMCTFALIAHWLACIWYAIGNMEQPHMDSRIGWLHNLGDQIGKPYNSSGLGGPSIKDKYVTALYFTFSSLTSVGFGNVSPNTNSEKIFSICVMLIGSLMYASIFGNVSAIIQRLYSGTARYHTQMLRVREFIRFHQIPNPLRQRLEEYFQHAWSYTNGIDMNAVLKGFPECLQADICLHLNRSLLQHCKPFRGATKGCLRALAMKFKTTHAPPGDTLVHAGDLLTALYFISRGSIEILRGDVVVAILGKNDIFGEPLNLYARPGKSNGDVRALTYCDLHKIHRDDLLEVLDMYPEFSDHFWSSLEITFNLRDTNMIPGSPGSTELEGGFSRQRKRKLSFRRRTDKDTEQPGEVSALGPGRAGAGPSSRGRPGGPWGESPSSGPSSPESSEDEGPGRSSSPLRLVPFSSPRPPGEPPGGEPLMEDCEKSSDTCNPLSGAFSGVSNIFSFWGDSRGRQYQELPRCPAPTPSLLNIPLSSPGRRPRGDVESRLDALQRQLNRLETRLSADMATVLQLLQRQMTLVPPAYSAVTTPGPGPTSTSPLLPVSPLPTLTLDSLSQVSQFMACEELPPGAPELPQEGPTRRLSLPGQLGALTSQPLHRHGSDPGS
TEST DESCRIPTION: Inhibition of human ERG expressed in human HEK293 cells by patch clamp assay
Format: cell-based
PROPERTY LABEL: IC50 (µM)
State the answer as a number, implicitly in µM.

Determine reported IC50 for Nc1cc(F)c(S(=O)(=O)N2CCC(O)CC2)cc1C(=O)Nc1cc(F)c(F)c(F)c1 ; test system: Voltage-gated inwardly rectifying potassium channel KCNH2 (Homo sapiens).
8.78

====

TEST DESCRIPTION: Stability in rat liver microsomes assessed as half life at 1 uM incubated for 30 mins by LC/MS/MS analysis
Assay type: ADME, Microsome
PROPERTY LABEL: half-life at 1 µM (min)
The response must be a number in min with no trailing unit.

Give the measured half-life at 1 µM for Nc1cc(F)c(S(=O)(=O)N2CCC(O)CC2)cc1C(=O)Nc1cc(F)c(F)c(F)c1
28.9
